- Tested on: Candida albicans A-26
- TEST METHOD NOTES: Therapeutic activity against Candida albicans A-26 infection in mice
- Format: in vivo
- EXPERIMENTAL SETUP: A26, sc, read-out: Lowest Active Dose, subcutaneous at 0, 4 and 24 hours post infection, lowest dose with significant anti-fungal effect
Numbered stars: 1 amine (or outer) side, 2 acyl side, 3 side chain; on linkers, the order of the positions; unused ones are H or OH. Bridge positions count the residues as written; N and C are the ends. Square brackets hold non-standard residues; d marks the D form. Peptide text beside a SMILES is read from it. * marks the point of attachment. Orn(4R-OH,5R-OH) = O=C([C@H](C[C@@H](O)[C@@H](O)N[*:3])N[*:1])[*:2]; hTyr(3S-OH,4S-OH) = N[C@H](C(=O)O)[C@H](O)[C@@H](O)c1ccc(O)cc1; Pro(3S-OH,4S-Me) = C[C@H]1CN[C@H](C(=O)O)[C@H]1O; X5 = O=C(c1cc(Cl)cc(N[*:1])c1Cl)[*:2]; Palmitoyl = CCCCCCCCCCCCCCCC(=O)*; Hyp = O=C(O)[C@@H]1C[C@@H](O)CN1; Myristoyl = CCCCCCCCCCCCCC(=O)*; Lauroyl = CCCCCCCCCCCC(=O)*; 4Abz = Nc1ccc(C(=O)O)cc1; Octanoyl = CCCCCCCC(=O)*
REPORTED PROPERTY: minimal effective dose (mg/kg)
Answer in mg/kg, number only, no unit symbol.

CCCCCCCCCCCCCC(=O)Nc1ccc(C(=O)N[C@H]2C[C@@H](O)[C@@H](O)NC(=O)[C@@H]3[C@@H](O)[C@@H](C)CN3C(=O)[C@H]([C@@H](C)O)NC(=O)[C@H]([C@H](O)[C@@H](O)c3ccc(O)cc3)NC(=O)[C@@H]3C[C@@H](O)CN3C(=O)[C@H]([C@@H](C)O)NC2=O)cc1 [Example 80] ({Myristoyl-4Abz}-[Orn(4R-OH,5R-OH)]T[Hyp][hTyr(3S-OH,4S-OH)]T[Pro(3S-OH,4S-Me)]; lactam 1-C) : 2.5
CCCCCCCCCCCCCCCC(=O)Nc1ccc(C(=O)N[C@H]2C[C@@H](O)[C@@H](O)NC(=O)[C@@H]3[C@@H](O)[C@@H](C)CN3C(=O)[C@H]([C@@H](C)O)NC(=O)[C@H]([C@H](O)[C@@H](O)c3ccc(O)cc3)NC(=O)[C@@H]3C[C@@H](O)CN3C(=O)[C@H]([C@@H](C)O)NC2=O)cc1 [Example 81] ({Palmitoyl-4Abz}-[Orn(4R-OH,5R-OH)]T[Hyp][hTyr(3S-OH,4S-OH)]T[Pro(3S-OH,4S-Me)]; lactam 1-C) : 5
CCCCCCCC(=O)Nc1cc(Cl)cc(C(=O)N[C@H]2C[C@@H](O)[C@@H](O)NC(=O)[C@@H]3[C@@H](O)[C@@H](C)CN3C(=O)[C@H]([C@@H](C)O)NC(=O)[C@H]([C@H](O)[C@@H](O)c3ccc(O)cc3)NC(=O)[C@@H]3C[C@@H](O)CN3C(=O)[C@H]([C@@H](C)O)NC2=O)c1Cl [Example 88] (Octanoyl-[X5][Orn(4R-OH,5R-OH)]T[Hyp][hTyr(3S-OH,4S-OH)]T[Pro(3S-OH,4S-Me)]; lactam 2-C) : 20

// switching to the query compound
Problem: State its minimal effective dose: CCCCCCCCCCCC(=O)Nc1cc(Cl)cc(C(=O)N[C@H]2C[C@@H](O)[C@@H](O)NC(=O)[C@@H]3[C@@H](O)[C@@H](C)CN3C(=O)[C@H]([C@@H](C)O)NC(=O)[C@H]([C@H](O)[C@@H](O)c3ccc(O)cc3)NC(=O)[C@@H]3C[C@@H](O)CN3C(=O)[C@H]([C@@H](C)O)NC2=O)c1Cl [Example 67] (Lauroyl-[X5][Orn(4R-OH,5R-OH)]T[Hyp][hTyr(3S-OH,4S-OH)]T[Pro(3S-OH,4S-Me)]; lactam 2-C)
Result: 10
